Listing: melting point of selected compounds

In [3]: df
Out[3]:
                                   compound     metricname  valuemeasured
0  CC[Si](C#Cc1ccc2nc(-n3ccnc3)nc(NCCOC)c2c1)(CC)CC  melting point  158 to 160 °C
1  CC(C)OCC(O)COc1ccc(/C=C/C(=O)O)c(Oc2ncc(C(F)(F)F)cc2Cl)c1 (stereo unspecified)  melting point    92 to 93 °C
2           Nc1cccc(OCc2csc(-c3ccccc3)n2)c1  melting point    75 to 80 °C

Reported melting point ( Cc1c(NC(=O)c2ccc(OCC3CCCO3)cc2)ccc2cc(CNCC(C)(C)O)cnc12 (stereo unspecified) ) = 138 °C

melting point recorded for this compound, O=C1CC(c2ccccc2)CN1C(=O)c1ccc(Cl)cc1 (stereo unspecified) , is 157 to 158 °C

Recorded melting point (compound CCCCCN(CCC12CC3CC(CC(C3)C1)C2)C(=O)NCC(C)(C)Cc1ccncc1 ): 82.5 to 84.9 °C

So, CC(c1ccc2c(c1)CCC(=O)N2)n1ccnc1 (stereo unspecified) ? Its melting point was 185 °C

Just so you know, measured melting point for O=C(O)[C@H](Cc1cccc(OC(F)(F)C(F)F)c1)[C@@H](O)c1ccnc(F)c1 (racemic) came out at 134 to 135 °C
